assay: in vivo; set-up: species or system Hunde (Beagle); conditions: dog, iv, 5 mg/kg
measurement_type: half-life (h)
Supply the numeric figure in h, leaving out any unit text.

Q: Reported half-life, compound CCN1CCN(c2cc3c(cc2F)c(=O)c(C(=O)O)cn3C2CC2)CC1 [Enrofloxacin] : ____
A: 3.7

Q: Record: N#Cc1c(N2C[C@@H]3CCCN[C@@H]3C2)c(F)cc2c(=O)c(C(=O)O)cn(C3CC3)c12 [Beispiel 1]
A: 10.5

----------
Task for the reader: assign each of the following compounds its reported MRT.
experiment: in vivo; set-up: species or system Hunde (Beagle); details: dog, iv, 5 mg/kg
# value in h; strip the unit string

Q: Entry under review: N#Cc1c(N2C[C@@H]3CCCN[C@@H]3C2)c(F)cc2c(=O)c(C(=O)O)cn(C3CC3)c12 [Beispiel 1] . Reported MRT?
A: 11.5

Q: Queued: CCN1CCN(c2cc3c(cc2F)c(=O)c(C(=O)O)cn3C2CC2)CC1 [Enrofloxacin]
A: 4.2
